# System: OVCAR-4 ovarian
# TEST_DESCRIPTION: NCI-60 one-dose screen, 48 h (100 = growth as untreated, 0 = no growth, -100 = all killed)
# CONDITION_PARAMETERS: 10 µM unless noted
# Experimental: Growth inhibition of the OVCAR-4 human tumor cell line is measured as a screen for anti-cancer activity. Cells are grown in 96 well plates and exposed to the test compound for 48 hours. Compounds are tested at a single concentration, which is 10^-5 M for most compounds. The reported endpoint is percent growth (GI% or GIPRCNT), where numbers from 0 - 100% represent growth inhibition, and numbers from -100% - 0 represent cell death. For example, a value of 40 represents 60% growth inhibition. […]
About 83,000 compounds went through this panel and 20% of them were active in at least one assay; those are over-represented in the sample as a whole. Active and inactive are the calls of the source. How the source made its calls: active means growth percent below 10; inactive means the rest.
TEST_READOUT: growth

Entry CCCCCCCSc1ccc(C(=O)O)cc1 ; growth = 93.9% (inactive)

---
Per the record, Cc1ccc2c(n1)C(=O)C(Oc1ccc(F)cc1)=CC2=O has growth of 96.6% (inactive)

For this molecule ( Clc1ccc(-c2nc(NCCc3ccccc3)nc3c(NCCc4ccccc4)cnn23)cc1 ), measured growth is 7.73% (active)

The value of growth measured for the molecule N#C/C(=C\c1ccc(Br)cc1)n1nnc2cc(Cl)c(Cl)cc21 turned out to be 21.6% (inactive)

Lab book: growth of O=C1C=CC(=Nc2cc(Br)c(O)c(Br)c2)C=C1 noted as 50.1% (inactive)

Record CCN(CC)CCOc1ccc(/C(=C(\C)c2ccc(OC)c(F)c2)c2ccc(Cl)cc2)cc1 . Reported growth: 73.1% (inactive)

Short answer for O=C(Nc1ccccn1)[C@H](O)[C@@H](O)C(=O)N1CCOCC1 : growth was 123% (inactive)
